Values from PubChem BioAssay (NCI)

- Test system: RXF 393 renal
- ASSAY_OVERVIEW: NCI-60 one-dose screen, 48 h (100 = growth as untreated, 0 = no growth, -100 = all killed)
- SETUP_CONDITIONS: 10 µM unless noted
Compounds without any hit were thinned out: in the full panel of roughly 83,000, 20% have a hit.
ASSAY_ENDPOINT: growth (%)
Respond numerically; units are % and should not be typed.

Sample answers from the record:
MOLECULE | QUANTITATIVE_RESULT
CCCCCCNC(=O)Oc1ccc(/C(=C(/C)Cc2ccc(OC)cc2)c2ccc(OCCN3CCCCC3)cc2)cc1 | 84.4
OCCN1CCN(CC/C=C2/c3ccccc3Sc3ccc(C(F)(F)F)cc32)CC1 | 59.6
Cc1c(C(N)=O)sc2c1c(=O)n(Cc1ccccc1)c1nnc(S(C)(=O)=O)n21 | 49.3
O=C(/C=C1\C(=O)N(Cc2ccc([N+](=O)[O-])cc2)c2ccccc21)c1ccc(OCCN2CCCCC2)cc1 | -90.7
CCCCS(=O)(=O)c1cc(Nc2ccc(O)c3c2C(=O)c2ccccc2C3=O)ccc1C | 76.1
COc1ccc(Cn2cc3c(c2-c2ccc(O)cc2)CCc2cnoc2-3)cc1 | 6.55

Which growth value is on record for C=CC1CN2CCC1CC2C(O)c1ccnc2ccc(OC)cc12 (stereo not given) ?
97

Requested read-out: growth. Entry: COc1ccc(C(=O)N2N=C(c3ccc(Br)cc3)CC2c2cn(-c3ccccc3)nc2-c2ccccc2)cc1 (stereo not given)
82.4

So what does the record say about growth for OC(c1ccccc1)(c1ccccc1)C(F)(F)F ?
120

Which value of growth has been reported for O=C1c2cc([N+](=O)[O-])ccc2-c2cc(Cl)c(NC(=O)C(F)(F)F)cc21 in the records?
87.5
